Molecular target: T1, BMP-7 (UniProt P18075 293-431)
T1 sequence (looked up): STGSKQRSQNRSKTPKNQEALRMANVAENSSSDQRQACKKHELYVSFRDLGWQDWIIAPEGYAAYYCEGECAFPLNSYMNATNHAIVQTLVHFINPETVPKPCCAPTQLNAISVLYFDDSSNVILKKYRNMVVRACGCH
Assay: SPR
Threshold check on Kd: strictly below 100 µM is MET; on or above 100 µM is NOT MET.

Dear reviewer, please state whether BMPR-II ECD Y40P (domain or fragment, human, UniProt Q13873 26-150, looked up) ASQNQERLCAFKDPPQQDLGIGESRISHENGTILCSKGSTCYGLWEKSKGDINLVKQGCWSHIGDPQECHYEECVVTTTPPSIQNGTYRFCCCSTDLCNVNFTENFPPPDTTPLSPPHSFNRDET has Kd strictly beneath 100 µM.
NOT MET

Dear reviewer, please state whether BMPR-II ECD S107P (domain or fragment, human, UniProt Q13873 26-150, looked up) ASQNQERLCAFKDPYQQDLGIGESRISHENGTILCSKGSTCYGLWEKSKGDINLVKQGCWSHIGDPQECHYEECVVTTTPPPIQNGTYRFCCCSTDLCNVNFTENFPPPDTTPLSPPHSFNRDET has Kd strictly beneath 100 µM.
MET

Dear reviewer, please state whether BMPR-II ECD Y40Q (domain or fragment, human, UniProt Q13873 26-150, looked up) ASQNQERLCAFKDPQQQDLGIGESRISHENGTILCSKGSTCYGLWEKSKGDINLVKQGCWSHIGDPQECHYEECVVTTTPPSIQNGTYRFCCCSTDLCNVNFTENFPPPDTTPLSPPHSFNRDET has Kd strictly beneath 100 µM.
NOT MET
